- TEST_TARGET: recombinant mouse E-Cadherin Fc Chimera (Mus musculus)
- Construct: purchased R&D Systems
- TEST_PROTOCOL: Biacore SPR equilibrium binding analysis (affinity capture)
- RUN_PARAMETERS: equilibrium analysis using affinity capture on HTE chip, peptide stock in water, average of three runs, running buffer HBS/0.02% Tween/2 mM CaCl2/1 mM MgCl2
- Protocol: Biacore SPR analysis was used to measure the interaction between peptides and recombinant mouse E-Cadherin Fc Chimera (R&D Systems). Analytes were passed over an HTE chip with surface bound His-tagged Recombinant Mouse E-Cadherin Fc Chimera (R&D Systems). The kinetics of interaction, i.e. the rates of complex formation (ka) and dissociation (kd), were determined and Integrin α4β7 protein was used as a control. […] Equilibrium analysis runs were performed three times and an average KD was calculated. […]
pKd: −log10 of the molar value. Ends that are not written are not given here.
Decision: pKd >= 5 yields 1 (yes), all other cases yield 0 (no).

Field: example entries. Status: answers known.
{"SUBSTANCE": "SAELYYPLRANL [EpepW2A]", "CLASS_LABEL": "0 (no)"}
{"SUBSTANCE": "SWEAYYPLRANL [EpepL4A]", "CLASS_LABEL": "1 (yes)"}

Reported pKd at or above 5? SWELYAPLRANL [EpepY6A]
0 (no)

Reported pKd at or above 5? SWALYYPLRANL [EpepE3A]
1 (yes)

Reported pKd at or above 5? SWELYYP [EpepΔCtm]
1 (yes)

Reported pKd at or above 5? H-SWELYYPLRANL-NH2 [Epep, H-SWELYYPLRANL-NH2]
1 (yes)
